Biological target: GHR
Assay: pooled miR-30 sensor sort-seq; sequence = guide strand; also: reference of the scale not given here
Conditions: shRNA
# sensor-assay potency score (higher = more potent) annotations
metric-name: sensor-assay potency score (higher = more potent)

seq: TGAACTTGGATTGCTTAGCTGA
reported-result: 0.127

seq: TAATCTTTGGAACTGGAACTGG
reported-result: -0.523

seq: TAGCTCAATAAATTCAACCCAA
reported-result: -0.0787

seq: TTCTGGTATAGAACAGCTGTAT
reported-result: -1.1

seq: TATGAATGGAGGTATAGTCTGG
reported-result: 0.0222

* * *

Target: FLG
Test: pooled miR-30 sensor sort-seq; sequence = guide strand
Settings: shRNA
Threshold rule: sensor-assay potency score (higher = more potent) greater than or equal to -0.3 is fulfilled; below that, not fulfilled.

seq: TAATCTAGTATTTTCAGTCTTG
group-label: fulfilled
//
seq: TTGTCTGCTGACACTTCTGGAT
group-label: not fulfilled
//
seq: TTTTGAGTCATTCTTCCTGTAT
group-label: not fulfilled
//
seq: TTCTAATAGACTATCAGTGGTG
group-label: fulfilled
//
seq: TAATCTGCACTACCATAGCTGC
group-label: not fulfilled
//
seq: TTGTCTGCTTGCACTTCTGGAT
group-label: not fulfilled
//
seq: TAGAGTCTGACTGTACAGGTGA
group-label: fulfilled
//
seq: TTTCTCTGCTTGCACTTCTGGA
group-label: not fulfilled

* * *

Biological target: TACR1
Test: pooled miR-30 sensor sort-seq; sequence = guide strand
Conditions: shRNA
metric-name: sensor-assay potency score (higher = more potent)

seq: TAGATCAGCACAGTCACACAGA
reported-result: -0.182

seq: TCGTTGTGGACAGCATAGGTGA
reported-result: -1.11

seq: TTGAGTAGTAGCCCTGGGGGAA
reported-result: -0.65

seq: TTCTCATAAATCTTGTTCGGAT
reported-result: -0.905

seq: TAGAACAGGCCGTAGTACCATT
reported-result: -1.05

seq: TTCGTCACTGTCCTCATTCTTT
reported-result: -0.603

seq: TGACTTTGTACACACTGCCCTG
reported-result: -1.2

* * *

Target: PDLIM4
Test: pooled miR-30 sensor sort-seq; sequence = guide strand
Conditions: shRNA
metric-name: sensor-assay potency score (higher = more potent)

seq: AAAGAAGTAACCACGCTGCTTG
reported-result: 0.146
--
seq: TTGTGAGGGACTGGAAAGCGAG
reported-result: -1.61
--
seq: TAGAGCTTGTCCCGTGCCTTGA
reported-result: -0.615
--
seq: TACACCGCCACCACGTCGTAGC
reported-result: -0.286
--
seq: AGACAGTGTGAGGTGATCGTGG
reported-result: -1.1
--
seq: TTGGTCTGCCATCTTCTGGCCC
reported-result: -0.715
--
seq: TGCACATGAAGCACTCGGGATG
reported-result: -1.65
--
seq: TCAGGATCGATGTGGATCCTGT
reported-result: -1.13
--
seq: TTGTCCATATGGAGATCCCAGG
reported-result: -1.39

* * *

# sensor-assay potency score (higher = more potent) annotations
Target: RHOF
Assay: pooled miR-30 sensor sort-seq; sequence = guide strand
Details: shRNA
metric-name: sensor-assay potency score (higher = more potent)

seq: AAACTTGGCGGAACATTCCAGG
reported-result: -0.805
--
seq: TTGCTGCCAACGGTCACGCTGG
reported-result: -0.873
--
seq: TACTTCTCGAACACCGATGGGG
reported-result: 0.0393
--
seq: TAGAGAGCAGCTCGGATCTGTT
reported-result: -0.736
--
seq: TTGATGAGGACGTTGTCGTAGC
reported-result: 0.173
--
seq: ATGAGCAGCGAGGTCTTGCCGC
reported-result: -1.07
--
seq: TAGTCTTCTTGCCCGGCCGTGT
reported-result: -1.09
--
seq: TTCCTCAGGTCTGTCTTGCAGC
reported-result: -0.598
--
seq: TAGCAGATGAGCACGAGGTGGG
reported-result: 0.0207

Sourced from the OligoGym collection
